Hello, the source for this data is the supplement of paper PMC11208160, in case you need it.

Examples of sequences with documented recombinant UMI read abundance (log10) follow.
- Assay text: recombinant UMI read abundance after kanamycin selection (control-corrected) (log10(CPM+1)); higher = more efficient recombination; extreme values may be limits of the assay; sequences stand for … in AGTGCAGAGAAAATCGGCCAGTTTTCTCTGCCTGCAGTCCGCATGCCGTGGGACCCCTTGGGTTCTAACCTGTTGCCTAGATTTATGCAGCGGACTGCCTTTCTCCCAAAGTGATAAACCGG…AGGTTGGTTTCACT; site = the 11-nt donor;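 note: IS621 bridge recombinase in Escherichia coli cells against a fixed T5 target plasmid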
Form rule: numeric answer, no unit written next to it.

Please review the following examples before continuing.
{"columns": ["Sequence input", "Measured metric", "Observed value"],
 "data": [
  ["TGACCCGCATGGACCGGTTTTCCCGGTAATCCGTATTTGAC (site CAGATACCTCC)", "recombinant UMI read abundance (log10)", 0.00655],
  ["ACAAAGACATGGACCGGTTTTCCCGGTAATCCGTATTTGAG (site ACAAAGACTCT)", "recombinant UMI read abundance (log10)", 2.49],
  ["CAGGGCCCATGGACCGGTTTTCCCGGTAATCCGTATTTGTT (site CAAGGCCCTAA)", "recombinant UMI read abundance (log10)", 0],
  ["TAACGTTCATGGACCGGTTTTCCCGGTAATCCGTATTTGTA (site TAACGTTCTTA)", "recombinant UMI read abundance (log10)", 1.16]
]}

Lookup: Which recombinant UMI read abundance (log10) reading was recorded for the sequence ACACTATCATGGACCGGTTTTCCCGGTAATCCGTATTTGCG (site ACAGTATCTTG) ?
Found: 0
